Value source: patent US20240409648A1

target: cynomolgus IL-36R on BaF/3 cells (cynomolgus); assay: cell-based or functional assay
# key: entry, value: IC90 pNFκB, trun-IL-36g, BaF/3 cynomolgus IL-36R cells
// units = nM; emit number, no label

binder | observed result
Mouse 73C5 (antibody 73C5) (antibody, V domains shown) VH: QVQLKESGPGLVAPSQSLSITCTVSGFSLTNYAVHWVRQFPGKGLEWLGVIWSDGSTDFNAPFKSRLSINKDNSKSQVFFKMNSLQIDDTAIYYCARKGGYSGSWFAYWGQGTLVTVSA VL: DIVMTQSQKFLSTSVGVRVSVTCKASQDVGTNVLWYQQKIGQSPKPLIYSASYRHSGVPDRFTGSGSGTDFTLIISNVQSEDLAEYFCQQYSRYPLTFGPGTKLELK | 1.5

Using the record for Mouse 73F6 (antibody 73F6) (antibody, V domains shown) VH: QVQLKESGPGLVAPSQSLSITCTVSGFSLTNYAVHWVRQFPGKGLEWLGVIWSDGSTDYNAPFKSRLSINKDNSKSQVFFKMNSLQTDDTAIYYCARKGGYSGSWFAYWGQGTLVTVSA VL: DIVMTQSQKFLSTSVGVRVSVTCKASQDVGTNVLWYQQKIGQSPKALIYSASYRHSGVPDRFTGSGSGTDFTLIITNVQSEDLAEYFCQQYSRYPLTFGPGTKLELK , report its IC90 pNFκB, trun-IL-36g, BaF/3 cynomolgus IL-36R cells.
0.8
